B1: r16_88_TrROS_Hall (parent)
chain: EVIELKIKFKTPEQREKLKEIAKKLNAEVVEEKDGEVIIRFKTPEQAERALKEAEKLGAEVEL

Variants of: B1
assay-comment: folding stability dG (cDNA display proteolysis); higher = more stable
settings: PBS, room temperature
Decide using folding stability dG: a value greater than or equal to 4 kcal/mol is True, a smaller one is False.

I21A :: True
L63Y :: True
L18P :: False
E60P :: False

Task: API: above_or_equal(metric=folding stability dG, cutoff=4 kcal/mol) for item `E53P`
Result: False

Task: `V30R` ?
Result: True

Task: `E13D` ?
Result: True

Task: `V2F` ?
Result: True

Task: `L57P` ?
Result: False

Task: `K10C` ?
Result: True

Task: `E60V` ?
Result: True

Task: `V29Y` ?
Result: True

Task: `E48N` ?
Result: True

Task: `V29T` ?
Result: True

Task: `P12R` ?
Result: True

Task: `T43Q` ?
Result: True

Task: `E16V` ?
Result: True

Task: `K56G` ?
Result: True

Task: `L25N` ?
Result: True
